- Assay Text: AP1 Signaling Pathway (AID 357);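 also: ME-180 reporter cells stimulated with EGF at its EC50 level; % is scaled to controls: 0 for no effect and ±100 for the full control effect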
- Condition Notes: ME-180 (cervical carcinoma) AP-1-bla reporter, EGF-induced, beta-lactamase ratio, 5 h; at 7.69 µM (top of the series) unless noted
Inconclusive results are not listed.
Entries and their activity change, negative = inhibition
# unit: % | format: bare number

Consider the following illustrative entries.
* Cn1cccc1C(=O)N1CCC[C@@]2(CCN(Cc3ccc(C#N)cc3)C2)C1 | -2.05
* c1csc(CNc2ccnc(-c3ccoc3)n2)c1 | 8.64
* COc1ncc2nc(C)c(=O)n(C3CC3)c2n1 | -5.11
* CS(=O)(=O)Nc1cccc(-c2ccc3ncnc(NCCN4CCOCC4)c3c2)c1 | -17.6

Now look at this one.
Query string: Find the recorded activity change, negative = inhibition belonging to CS(=O)(=O)N1CCC[C@@]2(CCN(Cc3ccccc3)C2)C1 and report it.
Result string: 0.761

###

- System: CP266
- Assay Text: qHTS profiling for inhibitors of Plasmodium falciparum proliferation (AID 504749);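 also: 0% = DMSO vehicle and full inhibition = artemisinin control; nearly all actives have a fitted effect of over 60% in size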
- Condition Notes: P. falciparum in erythrocytes, SYBR Green DNA, 72 h; series mostly up to 28.7 µM
Results filed as inconclusive are left out. Calls of active or inactive are those of the source. The call rests on the fitted dose curve; in most records, active means well fitted inhibition curve with a large enough effect; inconclusive means small, poorly fitted or top-dose-only effect; inactive means flat fitted curve, though single readings scatter.
Measurement Label: outcome

Consider the following illustrative entries.
• CN=C(N)NCCCC(N)C(=O)O (stereo not given) = inactive
• C=C1/C(=C\C=C2/CCC[C@]3(C)[C@@H]([C@H](C)CCCC(C)(C)O)CC[C@@H]23)C[C@@H](O)C[C@@H]1O = inactive
• COc1cc2c(cc1OC)C(c1ccccc1)CN(C)CC2 (stereo not given) = inactive
• C=C1CCC2[C@](C)(CO)C(O)CC[C@]2(C)C1C/C=C1/C(=O)OCC1O (stereo not given in full) = inactive

Query molecule follows.
Query string: Reported outcome for C[C@@H]1[C@H](O)[C@@H](C)/C=C/C=C/C=C/C=C/C=C/C=C/C=C/[C@H](O[C@@H]2O[C@H](C)[C@@H](O)[C@H](N)[C@@H]2O)C[C@@H]2O[C@](O)(C[C@@H](O)C[C@@H](O)[C@H](O)CC[C@@H](O)C[C@@H](O)CC(=O)O[C@H]1C)C[C@H](O)[C@H]2C(=O)O : what is it?
Result string: inactive

###

- Assay Text: Confirmatory qHTS for small molecule stabilizers of the endoplasmic reticulum resident proteome: Secreted ER Calcium Modulated Protein (SERCaMP) assay (AID 1508628); also: nearly all actives have a fitted effect of over 40% in size
- Condition Notes: SERCaMP secreted luciferase ER calcium/proteostasis reporter; series mostly up to 76.3 µM
Results filed as inconclusive are left out. Calls of active or inactive are those of the source. Calls come from the whole dose curve; as a rule, active = well fitted inhibition curve with a large enough effect; inconclusive = small, poorly fitted or top-dose-only effect; inactive = no such curve, though single readings can be large or run the other way.
Respond using exactly one of the listed classes: active, inactive

These recorded examples may help you get a feel for the data.
- Cc1ccccc1-c1nc(N2CCNCC2)c2ccccc2n1: active
- CCC(C)C(N)C(=O)NC(CC(N)=O)C(=O)NC(CC(C)C)C(=O)NC(CCCCN)C(=O)NC(C)C(=O)NC(CC(C)C)C(=O)NC(C)C(=O)NC(C)C(=O)NC(CC(C)C)C(=O)NC(C)C(=O)NC(CCCCN)C(=O)NC(CCCCN)C(=O)NC(C(=O)NC(CC(C)C)C(N)=O)C(C)CC (stereo not drawn): inactive

Query string: Please share the test call associated with FC(F)(F)c1ccccc1-c1nccc(N2CCNCC2)n1 .
Result string: active

###

- Assay Text: qHTS Assay for Lipid Storage Modulators (AID 1519)
- Condition Notes: Drosophila S3 cells, BODIPY lipid droplet/cell ratio, laser cytometry; measured here: lipid channel max response; cells loaded with oleic acid
Results filed as inconclusive are left out.
Reported values of max response for individual entries
Form entry: value (%) — number only.

# count of solved cases: 5
- Cc1noc(C)c1-c1ccc2ncnc(N3CCN(C)CC3)c2c1: 4.95
- Cc1noc(C)c1-c1cc(N(C)Cc2ccco2)ncn1: 17.9
- COc1ccc(-c2nc3cnc(Nc4ccccc4)nc3n(Cc3cccs3)c2=O)cc1: 23.5
- Cc1ccccc1-c1cc(NCCN2CCOCC2)ncn1: -5.46
- COc1ccc(NC(=O)N2CCCC3(CCNCC3)C2)cc1: 0.941

Query string: Give its max response value. Item: COc1cccc(Cn2c(=O)c(C)nc3cnc(OC)nc32)c1
Result string: 19.3

Query string: I would be grateful if you could share the reported max response for Cc1cnc(CNc2ncncc2-c2ccccc2C(F)(F)F)cn1 .
Result string: 28.1

Query string: Requested field: max response. Item: COCCNc1ncnc2ccc(-c3ccccc3C)cc12
Result string: -19.3

Query string: Any idea what max response was measured for Cc1noc(C)c1-c1cc(NCc2cccs2)ncn1 ?
Result string: 27.7

Query string: Consider the compound shown here: Cc1noc(C)c1-c1cc(NCCN2CCOCC2)ncn1 What is its recorded max response?
Result string: 29.1

Query string: Fill in the blank: the reported max response of CCNc1ncc2nc(-c3ccccc3)c(=O)n(Cc3cccs3)c2n1 is ____.
Result string: 16

###

- Measurement Target: Cytochrome P450 1A2 (Homo sapiens)
- Assay Text: p450-cyp1a2 (AID 410)
- Condition Notes: recombinant CYP1A2, luciferin-ME demethylation, luminescence; series mostly up to 57 µM
Inconclusive results are not listed. The source made the active and inactive calls. Calls follow the shape of the full dose curve.
Write down the outcome that applies. Available outcomes: 1.0 for active, 0.0 for inactive

Please review the entries below; each comes with its answer.
* Cc1nc2cnc(Oc3cccc(Cl)c3)nc2n(CCC#N)c1=O | 1.0
* O=c1cnc2cnc(N3CCOCC3)nc2n1C1CC1 | 1.0
* FC(F)(F)c1ccccc1-c1cc(NCCN2CCOCC2)ncn1 | 1.0
* COc1ncc2nc(-c3cccs3)c(=O)n(CCc3ccccc3)c2n1 | 1.0
* CC(=O)N1CCC[C@@]2(CCN(c3ccncc3)C2)C1 | 0.0
* Cc1nc2cnc(N3CCN(C)CC3)nc2n(Cc2cccs2)c1=O | 1.0

Query string: Recorded test call requested for Clc1ccccc1-c1nc(N2CCNCC2)c2ccccc2n1
Result string: 1.0

###

- Assay Text: qHTS drug screen for cell cycle checkpoint inhibitors in PARPi-resistant BRCA-mutant ovarian cancer cell lines. (AID 1963452)
- Condition Notes: PEO1/OlaR viability, CellTiter-Glo luminescence, 96 h; measured here: PEO4 Z-AUC; stronger effect = lower value
Measurement Label: Z-AUC

Example results:
• NS(=O)(=O)c1ccc(S(=O)(=O)Nc2cccc3c(Cl)c[nH]c23)cc1 = -0.727
• C[C@]12CCC3[C@@H](CC[C@H]4NC(=O)C=C[C@]34C)[C@@H]1CC[C@@H]2C(=O)Nc1cc(C(F)(F)F)ccc1C(F)(F)F (stereo partly specified) = -1.07

Kindly consider the entry below.
Query string: Entry C/C=C(/C)C(=O)O[C@H]1C(C)=CC23C(=O)C(C=C(CO)[C@@H](O)[C@]12O)[C@H]1[C@@H](C[C@H]3C)C1(C)C (stereo partly specified) : reported Z-AUC = ?
Result string: -0.581

###

- Assay Text: qHTS Assay for Lipid Storage Modulators (AID 1519)
- Condition Notes: Drosophila S3 cells, BODIPY lipid droplet/cell ratio, laser cytometry; measured here: cell count channel max response; cells loaded with oleic acid
Results filed as inconclusive are left out.
Label condition not met if max response falls below 10%; label condition met in every other case.

Look over these answered cases.
- CN1CCN(c2ncc3nc(-c4ccc(F)cc4)c(=O)n(Cc4cccs4)c3n2)CC1: condition not met
- COc1ncc2nc(-c3ccccc3)c(=O)n(-c3ccccc3)c2n1: condition met
- Cn1cc(-c2nc3cnc(N4CCOCC4)nc3n(C3CC3)c2=O)c2ccccc21: condition met

Query string: Given CC(C)NC(=O)N1CCC2(CC1)CCN(C(=O)c1ccncc1)CC2 , state whether its max response is at least 10%.
Result string: condition not met

Query string: Please indicate if the recorded max response for Cc1noc(C)c1-c1cc(Nc2ccc(F)cc2)ncn1 meets or exceeds 10%.
Result string: condition not met

Query string: Can CCNc1ncc2nc(C)c(=O)n(-c3ccc(OC)cc3)c2n1 be said to have max response at or above 10%?
Result string: condition met

Query string: Does Cc1cnc(CNc2ncncc2-c2c(C)noc2C)cn1 have a reported max response of at least 10%?
Result string: condition met

Query string: Given COCCn1c(=O)cnc2cnc(Oc3ccccc3)nc21 , state whether its max response is at least 10%.
Result string: condition met

###

- Measurement Target: Calcium and integrin-binding protein 1 (Homo sapiens) (UniProt Q99828)
- Sequence (Q99828 whole entry, looked up): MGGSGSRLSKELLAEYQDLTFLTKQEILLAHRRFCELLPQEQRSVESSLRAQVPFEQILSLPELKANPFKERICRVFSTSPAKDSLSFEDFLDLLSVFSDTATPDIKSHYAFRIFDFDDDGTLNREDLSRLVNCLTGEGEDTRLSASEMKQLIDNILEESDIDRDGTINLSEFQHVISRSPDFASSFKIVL
- Assay Text: Primary qHTS for Identification of Calcium Integrin Binding Protein 1 (CIB1) Competitor (AID 1508620);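 also: GST tagged CIB1 binding a fluorescein labelled alphaIIb integrin peptide tracer; top concentration of the series differs between compounds; % is scaled to controls: 0 for no effect and ±100 for the full control effect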
- Condition Notes: CIB1-GST / FITC-alphaIIb peptide fluorescence polarization; series mostly up to 114 µM
Records with an inconclusive call do not appear. Active and inactive are the calls of the source. Calls follow the shape of the dose curve; as a rule, active = well fitted inhibition curve with a large enough effect; inconclusive = small, poorly fitted or top-dose-only effect; inactive = flat fitted curve, though single readings scatter.
Measurement Label: outcome

Below, 10 molecules whose answers are already recorded.
• O=C(Cc1nnc(-c2ccncc2)s1)Nc1ccc(F)c(C(F)(F)F)c1 = inactive
• CC(C)c1ccccc1-c1nccc(NCc2ccc(-c3cccnc3)cc2)n1 = inactive
• CC(=O)Nc1cccc(S(=O)(=O)N2CCCN(S(=O)(=O)c3ccc4c(c3)OCCO4)CC2)c1 = inactive
• Cc1cc(N[S+](=O)([O-])c2cc3c(cc2Cl)CCC(=O)N3)ccc1Cl = inactive
• NC[C@@H](O)c1ccc(O)c(O)c1 = inactive
• Cc1cc(NC(=O)Nc2nnc(C3CCCCC3)s2)ccc1Cl = inactive
• N#Cc1nc(-c2cccc3ccccc23)oc1NC1CNC1 = inactive
• CN(C)c1cccc(-c2cnc(N3CCC(C(N)=O)CC3)nc2)c1 = inactive
• Fc1ccccc1-c1ccc(Nc2nc(-c3ccncc3)nc3ccccc23)cc1F = inactive
• Cc1cc(N[S+](=O)([O-])c2cc3c(cc2Cl)CCC(=O)N3)ccc1Br = inactive

Now look at this entry.
Query string: Param item = COc1ccc(C2Nc3ccccc3C(=O)N2Cc2cccnc2)cc1COc1c(C)cccc1C (stereo unspecified) ; retrieve measured outcome.
Result string: inactive
